Test system: HepG2
Test: CCK-8 cytotoxicity assay, HepG2
Assay type: cell-based, human
Settings: 72 h treatment, listed as Compound #11
Readout Label: IC50 (µM)
Numbers only, in µM.

IN: Retrieve IC50 measured for O=C(Nc1ccc(C(F)(F)F)cc1)c1cc(Cl)ccc1O and print it.
OUT: 1.86

---

Answer each item with its documented HL_Lambda_z, Geo Mean.
Test: Single-dose IV and PO pharmacokinetics in mice
Type: in vivo, male C57BL/6 mice
Settings: PO, 40 mg/kg (valine conjugates 40 mg/kg EQV)
Answers are plain numbers, in h.

Solved entries:
IN: Retrieve HL_Lambda_z, Geo Mean measured for O=C(Nc1ccc(C(F)(F)F)cc1Cl)c1cc(Cl)ccc1O and print it.
OUT: 3.58

IN: Retrieve HL_Lambda_z, Geo Mean measured for CC(C)[C@H](N)C(=O)Oc1ccc(Cl)cc1C(=O)Nc1ccc(C(F)(F)F)cc1 and print it.
OUT: 5.77

IN: Retrieve HL_Lambda_z, Geo Mean measured for CC(C)[C@H](N)C(=O)Oc1ccc(Cl)cc1C(=O)Nc1ccc([N+](=O)[O-])cc1Cl [valine–niclosamide] and print it.
OUT: 4.11

IN: Retrieve HL_Lambda_z, Geo Mean measured for CC(C)[C@H](N)C(=O)Oc1ccc(Cl)cc1C(=O)Nc1ccc(C(F)(F)F)cc1Cl and print it.
OUT: 6.46

---
IN: Retrieve HL_Lambda_z, Geo Mean measured for O=C(Nc1ccc(C(F)(F)F)cc1)c1cc(Cl)ccc1O and print it.
OUT: 2.68

---

Answer each item with its documented AUC.
Test: Single-dose IV and PO pharmacokinetics in mice
Assay type: in vivo, male C57BL/6 mice
Settings: male, C57BL/6, mouse, plasma, po, 40 mg/kg, single PO dose, 40 mg/kg or molar equivalent; analyte = dosed compound; read-out: AUCall following an oral dose
Could you write the number and then its unit?

IN: Retrieve AUC measured for CC(C)[C@H](N)C(=O)Oc1ccc(Cl)cc1C(=O)Nc1ccc(C(F)(F)F)cc1 [valine–compound #11] and print it.
OUT: 4.17 µM·h

IN: Retrieve AUC measured for O=C(Nc1ccc(C(F)(F)F)cc1)c1cc(Cl)ccc1O [compound #11] and print it.
OUT: 7.98 µM·h

IN: Retrieve AUC measured for CC(C)[C@H](N)C(=O)Oc1ccc(Cl)cc1C(=O)Nc1ccc([N+](=O)[O-])cc1Cl [valine–niclosamide] and print it.
OUT: 48.6 µM·h

---
IN: Retrieve AUC measured for CC(C)[C@H](N)C(=O)Oc1ccc(Cl)cc1C(=O)Nc1ccc(C(F)(F)F)cc1Cl [valine–compound #7] and print it.
OUT: 62.1 µM·h

---

Test: Single-dose IV and PO pharmacokinetics in mice
Format: in vivo, male C57BL/6 mice
Settings: male, C57BL/6, mouse, plasma, po, 40 mg/kg, PO 40 mg/kg of the parent compound; read-out: AUCall following an oral dose of the unconjugated compound
Readout Label: AUC (µM·h)
Answers are plain numbers, in µM·h.

IN: Retrieve AUC measured for O=C(Nc1ccc(C(F)(F)F)cc1Cl)c1cc(Cl)ccc1O [compound #7] and print it.
OUT: 13

---

Test: Single-dose IV and PO pharmacokinetics in mice
Assay type: in vivo, male C57BL/6 mice
Settings: male, C57BL/6, mouse, plasma, po, 40 mg/kg, PO, 40 mg/kg (valine conjugates 40 mg/kg EQV); read-out: Cmax, Geo Mean
Use Satisfied when the recorded Cmax is no lower than 8 µM; use Not satisfied when it is lower.

Previously resolved entries follow.
IN: hey, is Cmax for this one >= 8 µM? CC(C)[C@H](N)C(=O)Oc1ccc(Cl)cc1C(=O)Nc1ccc([N+](=O)[O-])cc1Cl [valine–niclosamide]
OUT: Satisfied

IN: hey, is Cmax for this one >= 8 µM? O=C(Nc1ccc(C(F)(F)F)cc1Cl)c1cc(Cl)ccc1O
OUT: Not satisfied

IN: hey, is Cmax for this one >= 8 µM? CC(C)[C@H](N)C(=O)Oc1ccc(Cl)cc1C(=O)Nc1ccc(C(F)(F)F)cc1
OUT: Not satisfied

IN: hey, is Cmax for this one >= 8 µM? O=C(Nc1ccc(C(F)(F)F)cc1)c1cc(Cl)ccc1O
OUT: Not satisfied

Switching to the query record.
IN: hey, is Cmax for this one >= 8 µM? CC(C)[C@H](N)C(=O)Oc1ccc(Cl)cc1C(=O)Nc1ccc(C(F)(F)F)cc1Cl
OUT: Not satisfied

Data credit: paper PMC12346198
